assay: Body weight, complete blood count and biochemical profile of MDAH-2774-xenografted nude mice; format: in vivo; conditions: MDAH-2774 xenograft, high dose, 7 weeks
MEASURED_PROPERTY: RBC

**Q:** Can you look up the measured RBC of "O=C1C=CC(O)(c2cc(=O)c3c(O)cc(O)cc3o2)C=C1" for me?
**A:** 9.1 10^6/µL

---

assay: XTT cell proliferation assay (cytotoxicity); assay type: cell-based; conditions: HOSE 6-3 immortalized ovarian epithelial cells; immortalized human ovarian epithelial cells HOSE 6-3
MEASURED_PROPERTY: IC50
Be sure to follow the number with its unit.

**Q:** Fill in: IC50 of "O=C1C=CC(O)(c2cc(=O)c3c(O)cc(O)cc3o2)C=C1" is ___
**A:** 8.98 µM
